tested_on: Beta-2 adrenergic receptor (Homo sapiens) (UniProt P07550)
Sequence (P07550 whole entry, looked up): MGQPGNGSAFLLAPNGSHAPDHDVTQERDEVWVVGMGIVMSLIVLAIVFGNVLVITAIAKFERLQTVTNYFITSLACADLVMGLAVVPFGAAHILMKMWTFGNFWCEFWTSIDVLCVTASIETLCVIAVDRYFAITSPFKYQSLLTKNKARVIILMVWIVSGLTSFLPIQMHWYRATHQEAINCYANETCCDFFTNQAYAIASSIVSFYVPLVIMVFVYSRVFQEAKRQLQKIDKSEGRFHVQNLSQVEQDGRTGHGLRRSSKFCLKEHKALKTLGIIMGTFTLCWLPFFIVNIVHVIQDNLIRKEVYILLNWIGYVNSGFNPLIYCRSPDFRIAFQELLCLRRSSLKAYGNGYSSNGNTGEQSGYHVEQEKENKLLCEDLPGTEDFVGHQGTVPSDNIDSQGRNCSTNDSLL
assay: Adrenergic beta2 receptor (ADRB2) small molecule antagonists, cell-based qHTS assay (AID 1963592); further: nearly all actives have a fitted effect of over 50% in size
condition_label: CHO-ADRB2 cells, isoproterenol-stimulated cAMP HTRF ratio, 0.5 h; series mostly up to 92.4 µM
Records with an inconclusive call do not appear. The source made the active and inactive calls. The call rests on the fitted dose curve.
quantity: outcome

INSERT INTO measurements (compound, tested_on, quantity, value) VALUES
  ('O=C(N/N=C/c1ccc([N+](=O)[O-])o1)c1ccc(O)cc1', 'Beta-2 adrenergic receptor (Homo sapiens) (UniProt P07550)', 'outcome', 'inactive'),
  ('COc1c2occc2c(OC)c2c(=O)cc(C)oc12', 'Beta-2 adrenergic receptor (Homo sapiens) (UniProt P07550)', 'outcome', 'inactive'),
  ('C1C2OC2C2C1C1CC2C2OC12 (centres undefined)', 'Beta-2 adrenergic receptor (Homo sapiens) (UniProt P07550)', 'outcome', 'inactive'),
  ('CC[N+](CC)(CC)CCOC(=O)C(C1CCCC1)C1CCCC1', 'Beta-2 adrenergic receptor (Homo sapiens) (UniProt P07550)', 'outcome', 'inactive'),
  ('CN(C)CCN(C)CCO', 'Beta-2 adrenergic receptor (Homo sapiens) (UniProt P07550)', 'outcome', 'inactive'),
  ('COC(=O)[C@@H](N)Cc1ccc(O)c(O)c1', 'Beta-2 adrenergic receptor (Homo sapiens) (UniProt P07550)', 'outcome', 'inactive'),
  ('Nc1ccc(C(=O)Nc2ccccc2N)cc1', 'Beta-2 adrenergic receptor (Homo sapiens) (UniProt P07550)', 'outcome', 'inactive'),
  ('CC(C)(C(=O)O)c1ccc(C(O)CCCN2CCC(C(O)(c3ccccc3)c3ccccc3)CC2)cc1 (centres undefined)', 'Beta-2 adrenergic receptor (Homo sapiens) (UniProt P07550)', 'outcome', 'inactive'),
  ('CCOB(OCC)OCC', 'Beta-2 adrenergic receptor (Homo sapiens) (UniProt P07550)', 'outcome', 'inactive'),
  ('C[C@H]1O[C@@H](O[C@H]2CC[C@@]3(C)[C@H](CC[C@@H]4[C@@H]3C[C@@H](O)[C@]3(C)[C@@H](C5=CC(=O)OC5)CC[C@]43O)C2)C[C@H](O)[C@@H]1O[C@H]1C[C@H](O)[C@H](O[C@H]2C[C@H](O)[C@H](O[C@@H]3O[C@H](CO)[C@@H](O)[C@H](O)[C@H]3O)[C@@H](C)O2)[C@@H](C)O1', 'Beta-2 adrenergic receptor (Homo sapiens) (UniProt P07550)', 'outcome', 'inactive'),
  ('Nc1nc(F)nc2c1ncn2[C@@H]1O[C@H](CO)[C@@H](O)[C@@H]1O', 'Beta-2 adrenergic receptor (Homo sapiens) (UniProt P07550)', 'outcome', 'inactive'),
  ('CCOc1ccc2nc(N)sc2c1', 'Beta-2 adrenergic receptor (Homo sapiens) (UniProt P07550)', 'outcome', 'inactive'),
  ('CC1=C(/C=C/C(C)=C/C=C/C(C)=C\C=O)C(C)(C)CCC1', 'Beta-2 adrenergic receptor (Homo sapiens) (UniProt P07550)', 'outcome', 'inactive'),
  ('Cc1c(O)cccc1O', 'Beta-2 adrenergic receptor (Homo sapiens) (UniProt P07550)', 'outcome', 'inactive'),
  ('CC(CN(CCN(CC(C)OCCO)CC(C)OCCO)CC(C)OCCO)OCCO (centres undefined)', 'Beta-2 adrenergic receptor (Homo sapiens) (UniProt P07550)', 'outcome', 'inactive'),
  ('Cc1onc(-c2c(Cl)cccc2Cl)c1C(=O)N[C@@H]1C(=O)N2[C@@H]1SC(C)(C)[C@@H]2C(=O)O', 'Beta-2 adrenergic receptor (Homo sapiens) (UniProt P07550)', 'outcome', 'inactive'),
  ('CO[Si](C)(OC)OC', 'Beta-2 adrenergic receptor (Homo sapiens) (UniProt P07550)', 'outcome', 'inactive'),
  ('Fc1ccccc1[C@@H](F)COC1CCC(Nc2ncnc3[nH]ncc23)CC1 (some centres undefined)', 'Beta-2 adrenergic receptor (Homo sapiens) (UniProt P07550)', 'outcome', 'inactive'),
  ('CCc1cc(C2=C(C(=O)O)N(c3ccccc3C(F)(F)F)S(=O)(=O)c3ccccc32)cc2c1OCO2', 'Beta-2 adrenergic receptor (Homo sapiens) (UniProt P07550)', 'outcome', 'inactive'),
  ('Cc1cc(Cl)c(C)cc1Cl', 'Beta-2 adrenergic receptor (Homo sapiens) (UniProt P07550)', 'outcome', 'inactive'),
  ('CCN(CC)CC', 'Beta-2 adrenergic receptor (Homo sapiens) (UniProt P07550)', 'outcome', 'inactive'),
  ('CC(C)NCC(O)COc1cccc2[nH]ccc12 (centres undefined)', 'Beta-2 adrenergic receptor (Homo sapiens) (UniProt P07550)', 'outcome', 'inactive'),
  ('Clc1nc2ccccc2nc1Cl', 'Beta-2 adrenergic receptor (Homo sapiens) (UniProt P07550)', 'outcome', 'inactive'),
  ('O=C(Cl)c1c(Cl)cccc1Cl', 'Beta-2 adrenergic receptor (Homo sapiens) (UniProt P07550)', 'outcome', 'inactive');
